Consider the following IC50 values measured on Histone acetyltransferase p300 (Homo sapiens, UniProt Q09472).
Sequence (Q09472 whole entry): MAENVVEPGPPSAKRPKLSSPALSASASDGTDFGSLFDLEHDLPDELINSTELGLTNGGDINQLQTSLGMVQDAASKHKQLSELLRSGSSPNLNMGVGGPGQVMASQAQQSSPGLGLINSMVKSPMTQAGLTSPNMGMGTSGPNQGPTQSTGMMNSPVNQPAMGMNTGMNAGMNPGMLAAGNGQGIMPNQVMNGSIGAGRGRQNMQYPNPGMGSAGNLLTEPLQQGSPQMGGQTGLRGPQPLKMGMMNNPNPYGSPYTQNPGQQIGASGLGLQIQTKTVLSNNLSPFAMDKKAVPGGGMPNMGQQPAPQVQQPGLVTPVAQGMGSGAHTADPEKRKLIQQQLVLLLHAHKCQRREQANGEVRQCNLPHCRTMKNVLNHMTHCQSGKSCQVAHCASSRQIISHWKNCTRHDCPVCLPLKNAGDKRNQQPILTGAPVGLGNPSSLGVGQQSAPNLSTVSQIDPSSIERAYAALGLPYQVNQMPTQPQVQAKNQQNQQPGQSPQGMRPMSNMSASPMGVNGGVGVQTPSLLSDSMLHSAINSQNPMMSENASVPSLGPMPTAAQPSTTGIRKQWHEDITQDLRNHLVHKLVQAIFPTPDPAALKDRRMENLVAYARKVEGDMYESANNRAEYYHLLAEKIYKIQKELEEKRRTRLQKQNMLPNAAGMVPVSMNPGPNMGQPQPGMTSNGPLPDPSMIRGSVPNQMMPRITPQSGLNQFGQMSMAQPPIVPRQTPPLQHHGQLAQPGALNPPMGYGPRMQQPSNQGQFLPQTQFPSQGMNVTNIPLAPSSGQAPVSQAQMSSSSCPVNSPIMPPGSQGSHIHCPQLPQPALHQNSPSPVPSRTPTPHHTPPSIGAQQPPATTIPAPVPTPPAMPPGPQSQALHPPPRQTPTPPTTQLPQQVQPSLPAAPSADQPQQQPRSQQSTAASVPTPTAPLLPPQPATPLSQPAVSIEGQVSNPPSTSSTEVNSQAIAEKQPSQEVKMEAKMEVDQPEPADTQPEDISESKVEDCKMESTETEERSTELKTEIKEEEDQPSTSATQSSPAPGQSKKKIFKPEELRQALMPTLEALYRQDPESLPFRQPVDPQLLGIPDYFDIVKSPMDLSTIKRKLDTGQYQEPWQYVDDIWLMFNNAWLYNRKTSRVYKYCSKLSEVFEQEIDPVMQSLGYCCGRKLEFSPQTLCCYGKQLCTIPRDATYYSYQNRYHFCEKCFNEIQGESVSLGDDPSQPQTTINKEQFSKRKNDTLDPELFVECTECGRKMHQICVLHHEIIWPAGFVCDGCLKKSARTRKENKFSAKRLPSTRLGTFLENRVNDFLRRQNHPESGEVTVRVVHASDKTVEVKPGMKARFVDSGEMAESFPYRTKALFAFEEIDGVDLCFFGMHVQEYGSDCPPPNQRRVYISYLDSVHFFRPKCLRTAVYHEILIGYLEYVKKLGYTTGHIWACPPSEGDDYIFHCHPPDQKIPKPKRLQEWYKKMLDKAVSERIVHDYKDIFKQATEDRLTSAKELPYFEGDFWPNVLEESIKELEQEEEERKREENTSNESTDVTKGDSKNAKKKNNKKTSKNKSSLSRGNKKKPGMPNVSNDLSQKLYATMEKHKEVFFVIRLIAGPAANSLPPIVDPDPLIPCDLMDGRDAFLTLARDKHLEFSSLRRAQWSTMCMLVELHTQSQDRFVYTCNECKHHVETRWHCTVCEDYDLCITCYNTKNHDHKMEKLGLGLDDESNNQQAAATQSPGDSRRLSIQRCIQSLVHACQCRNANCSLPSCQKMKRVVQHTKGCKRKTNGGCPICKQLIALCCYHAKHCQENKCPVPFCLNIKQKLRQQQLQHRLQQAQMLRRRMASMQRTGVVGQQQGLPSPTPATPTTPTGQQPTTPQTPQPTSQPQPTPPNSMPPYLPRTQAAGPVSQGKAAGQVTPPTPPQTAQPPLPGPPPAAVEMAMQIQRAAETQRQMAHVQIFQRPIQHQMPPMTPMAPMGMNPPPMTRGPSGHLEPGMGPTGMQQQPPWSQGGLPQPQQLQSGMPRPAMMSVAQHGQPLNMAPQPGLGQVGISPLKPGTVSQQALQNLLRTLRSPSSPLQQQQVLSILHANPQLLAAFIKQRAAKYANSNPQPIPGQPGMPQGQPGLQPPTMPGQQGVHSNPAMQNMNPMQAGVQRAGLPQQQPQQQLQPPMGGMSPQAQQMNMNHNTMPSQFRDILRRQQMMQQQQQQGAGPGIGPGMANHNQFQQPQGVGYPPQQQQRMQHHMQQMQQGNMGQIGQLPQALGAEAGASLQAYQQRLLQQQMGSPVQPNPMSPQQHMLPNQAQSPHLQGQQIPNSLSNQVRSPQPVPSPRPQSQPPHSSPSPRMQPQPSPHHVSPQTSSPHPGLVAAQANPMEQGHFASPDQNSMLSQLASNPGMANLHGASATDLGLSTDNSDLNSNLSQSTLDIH

Request: IC50, test system Histone acetyltransferase p300 (Homo sapiens, UniProt Q09472), entry "CC[C@@H]1C(=O)N(C)c2cnc(N(C)c3ccc(-c4nc5c(C(N)=O)cccc5[nH]4)cc3OC)nc2N1C1CCCC1"
59.4 µM

Entry "Cc1sc2c(c1C)C(c1ccc(Cl)cc1)=N[C@@H](CC(=O)OC(C)(C)C)c1nnc(C)n1-2" please
19.4 µM

====

// IC50 lookup, one value per entry
- Tested on: CAPAN-1
- protocol_summary: Antiproliferative activity against human CAPAN-1 cells assessed as reduction in cell viability after 4 days by MTT assay
- Format: functional, cell-based
- condition_summary: CAPAN-1, 96 h
// return numeric value only (unit: nM, not printed)

These recorded examples may help you get a feel for the data.
CC[C@@H]1C(=O)N(C)c2cnc(N(C)c3ccc(-c4nc5c(C(N)=O)cccc5[nH]4)cc3OC)nc2N1C1CCCC1	1560
Cc1sc2c(c1C)C(c1ccc(Cl)cc1)=N[C@@H](CC(=O)OC(C)(C)C)c1nnc(C)n1-2	2440

// query IC50 value for entry "O=C(c1cc(Cc2n[nH]c(=O)c3ccccc23)ccc1F)N1CCN(C(=O)C2CC2)CC1"
8420
